Data provenance is ChEMBL document CHEMBL4138171.

molecular target: Albumin (Homo sapiens, UniProt P02768); experiment: Binding affinity to human serum albumin assessed as Gibbs free energy change at 303K by Van't Hoff plot method; type: ADME; details: isolated protein
Sequence (P02768 whole entry): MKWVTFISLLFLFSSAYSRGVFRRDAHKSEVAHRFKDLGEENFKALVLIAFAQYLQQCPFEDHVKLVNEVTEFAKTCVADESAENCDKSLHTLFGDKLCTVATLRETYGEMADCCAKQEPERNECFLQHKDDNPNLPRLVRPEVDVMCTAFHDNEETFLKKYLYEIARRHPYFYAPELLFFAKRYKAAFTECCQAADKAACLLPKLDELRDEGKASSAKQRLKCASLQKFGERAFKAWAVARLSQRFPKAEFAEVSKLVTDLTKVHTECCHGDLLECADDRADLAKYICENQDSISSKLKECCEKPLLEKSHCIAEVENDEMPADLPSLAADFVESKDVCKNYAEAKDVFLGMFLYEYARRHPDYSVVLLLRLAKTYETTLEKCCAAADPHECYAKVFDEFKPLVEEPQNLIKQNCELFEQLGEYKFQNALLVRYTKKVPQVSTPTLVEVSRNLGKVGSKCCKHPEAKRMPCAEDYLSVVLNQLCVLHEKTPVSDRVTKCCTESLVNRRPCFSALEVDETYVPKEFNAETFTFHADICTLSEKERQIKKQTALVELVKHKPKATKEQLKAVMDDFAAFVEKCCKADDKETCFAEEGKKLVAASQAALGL
readout_type: deltaG (kcal/mol)
Numbers only; they are read as kcal/mol.

*Q* Missing value: deltaG, Albumin (Homo sapiens, UniProt P02768), entry `O=C(O)/C(O)=C/C(=O)c1cc(C2CCCCC2)ccc1C1CCCCC1` . Fill in?
*A* -8.6

* * *

system: Staphylococcus aureus; assay: Antibacterial activity against methicillin-resistant Staphylococcus aureus NCTC 13373 after 16 hrs by microdilution method; type: functional; details: NCTC 13373, 16 h
Entries and their MIC

Sample records with MIC:
CCCCc1ccc(C(=O)/C=C(\O)C(=O)O)cc1    258 µM
COc1cc(C)c(C(=O)/C=C(\O)C(=O)O)cc1C    > 128 µg/mL
Cc1ccc(C(=O)/C=C(\O)C(=O)O)c(C)c1    > 128 µg/mL

*Q* Consider the compound shown here: `CC(C)c1cc(C(C)C)c(C(=O)CCC(=O)O)c(C(C)C)c1` What is its recorded MIC?
*A* > 128 µg/mL

*Q* What value of MIC has been reported for the following compound? `O=C(O)/C(O)=C/C(=O)c1ccc(-n2ccnc2)cc1`
*A* 248 µM

*Q* Which MIC is reported for this compound? `Cc1ccccc1C(=O)/C=C(\O)C(=O)O`
*A* > 128 µg/mL

*Q* Report MIC for `CN(C)c1ccc(C(=O)/C=C(\O)C(=O)O)cc1` please.
*A* > 128 µg/mL

*Q* GET /values?readout=MIC&item= `O=C(O)CCC(=O)c1ccc(-c2ccccc2)cc1`
*A* > 128 µg/mL

*Q* Returns the measured MIC for the input compound. Input: `O=C(O)CCC(=O)c1cc(C2CCCCC2)ccc1C1CCCCC1`
*A* 94 µM

*Q* Sample `Cc1cc(C(=O)/C=C(\O)C(=O)O)cc(C)c1O` — what was its MIC?
*A* > 128 µg/mL

*Q* Dear colleague, I am looking for the recorded MIC of the following compound: `O=C(O)/C(O)=C/C(=O)c1cccc(C(F)(F)F)c1`
*A* > 128 µg/mL

*Q* MIC for `O=C(O)/C(O)=C/C(=O)c1cccc(Br)c1` ?
*A* > 128 µg/mL

*Q* Reported MIC, compound `CN1CCN(c2ccc(C(=O)/C=C(\O)C(=O)O)cc2)CC1` : ____
*A* > 128 µg/mL

*Q* What does the data say about its MIC? Entry: `Cc1cc(C)c(C(=O)/C=C(\O)C(=O)O)cc1C`
*A* > 128 µg/mL

*Q* Requested read-out: MIC. Entry: `O=C(O)/C(O)=C/C(=O)c1ccc(N2CCCC2)cc1`
*A* > 128 µg/mL

*Q* Could you tell me which MIC is on file for `COc1ccccc1C(=O)/C=C(\O)C(=O)O` ?
*A* > 128 µg/mL

*Q* # get_value(readout='MIC', item= `COc1cccc(C(=O)/C=C(\O)C(=O)O)c1` )
*A* > 128 µg/mL

*Q* Can you look up the measured MIC of `O=C(O)/C(O)=C/C(=O)c1cc(C2CCCCC2)ccc1C1CCCCC1` for me?
*A* 11 µM

*Q* Dear colleague, I am looking for the recorded MIC of the following compound: `O=C(O)/C(O)=C/C(=O)c1ccc(N2CCOCC2)cc1`
*A* > 128 µg/mL

*Q* MIC for `CC(C)c1cc(C(C)C)c(C(=O)/C=C(\O)C(=O)O)c(C(C)C)c1` ?
*A* > 128 µg/mL

*Q* Sample `O=C(O)/C(O)=C/C(=O)c1ccc2c(c1)CCCC2` — what was its MIC?
*A* > 128 µg/mL

*Q* Can you share its MIC? I mean this compound: `Cc1cc(C)c(C)c(C(=O)/C=C(\O)C(=O)O)c1C`
*A* > 128 µg/mL

*Q* What measured MIC goes with `CC(=O)c1cc(C2CCCCC2)ccc1C1CCCCC1` ?
*A* 450 µM

*Q* Param item = `Cc1cccc(C(=O)/C=C(\O)C(=O)O)c1` ; retrieve measured MIC.
*A* > 128 µg/mL
